Quick reference for inhibition at 200 µM among some molecules
Target: CAT1 (cationic amino acid transporter 1, CAT1/SLC7A1) (Homo sapiens)
Construct: full-length human transporter stably transfected in HEK cells (HEK-CAT1); net uptake against HEK-VC vector control cells
Experiment: cell-based
Set-up: species or system HEK-CAT1 (HEK293 stably transfected); Inhibition of net CAT1-mediated [3H]-ADMA (1 uM) uptake, 2.5 min, scintillation counting, vector control subtracted
Conditions: HEK293; ADMA 1 uM as substrate; read-out: % Inhibition of ADMA uptake at 200 µM
Procedure: Uptake and inhibition assays using HEK-CAT1 and HEK-VC cells and L-arginine, L-homoarginine, and ADMA as substrates were performed using the protocol described (Strobel et al. [2012]; Chafai et al. [2017]). […] The net uptake was determined by subtracting the total amount taken up by control cells from the amount taken up by CAT1-expressing cells, which was expressed as a percentage of the amount taken up by the control. […]
I only need the number, in %, no unit after it.

Would you please look over these solved cases?
molecule | data value
CN(C)C(=N)NC(=N)N | -8.4
COC(=O)[C@H]1[C@H]2C[C@@H]3c4[nH]c5cc(OC)ccc5c4CCN3C[C@H]2C[C@@H](OC(=O)c2cc(OC)c(OC)c(OC)c2)[C@@H]1OC | 24.2
CCOC(=O)C1=C(C)NC(C)=C(C(=O)OC)C1c1cccc([N+](=O)[O-])c1 (stereo not shown) | 30.4

Query for CAT1 (cationic amino acid transporter 1, CAT1/SLC7A1) (Homo sapiens): what inhibition at 200 µM does the record show for CO/N=C(\C(=O)N[C@@H]1C(=O)N2C(C(=O)O)=C(COC(N)=O)CS[C@H]12)c1ccco1 ? -11.5

* * *

Quick reference for inhibition at 20 µM among some compounds
molecular target: CAT1 (cationic amino acid transporter 1, CAT1/SLC7A1) (Homo sapiens, UniProt P30825); construct: full-length human transporter stably transfected in HEK cells (HEK-CAT1); net uptake against HEK-VC vector control cells; experiment: cell-based; design: species or system HEK-CAT1 (HEK293 stably transfected); Inhibition of net CAT1-mediated [3H]-L-homoarginine (1 uM) uptake, 2.5 min, scintillation counting, vector control subtracted; details: HEK293; L-homoarginine 1 uM as substrate; read-out: % Inhibition of L-homoarginine uptake at 20 µM
Sequence (P30825 whole entry): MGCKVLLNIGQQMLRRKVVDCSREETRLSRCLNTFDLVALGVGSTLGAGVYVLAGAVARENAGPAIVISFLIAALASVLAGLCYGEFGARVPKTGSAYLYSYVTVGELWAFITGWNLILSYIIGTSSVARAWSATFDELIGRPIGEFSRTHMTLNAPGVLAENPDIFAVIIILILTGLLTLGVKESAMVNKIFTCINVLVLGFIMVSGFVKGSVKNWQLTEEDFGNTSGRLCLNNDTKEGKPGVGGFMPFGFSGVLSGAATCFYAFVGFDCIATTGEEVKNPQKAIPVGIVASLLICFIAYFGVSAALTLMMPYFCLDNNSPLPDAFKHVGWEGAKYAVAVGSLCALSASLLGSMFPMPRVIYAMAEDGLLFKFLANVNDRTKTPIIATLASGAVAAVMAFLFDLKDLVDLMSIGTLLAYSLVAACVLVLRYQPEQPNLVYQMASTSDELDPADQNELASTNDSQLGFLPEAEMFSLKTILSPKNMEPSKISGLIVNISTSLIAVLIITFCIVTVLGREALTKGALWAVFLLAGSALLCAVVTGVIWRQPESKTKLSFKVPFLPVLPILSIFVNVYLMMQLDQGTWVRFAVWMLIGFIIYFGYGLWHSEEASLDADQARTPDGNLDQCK
I only need the number, in %, no unit after it.

compound | tested on | scale unit | inhibition at 20 µM
O=C(O)Cc1ccccc1Nc1c(Cl)cccc1Cl | CAT1 (cationic amino acid transporter 1, CAT1/SLC7A1) (Homo sapiens, UniProt P30825) | % | -15.1
CC[C@H](C)C(=O)O[C@H]1C[C@H](O)C=C2C=C[C@H](C)[C@H](CC[C@@H](O)C[C@@H](O)CC(=O)O)[C@H]21 | CAT1 (cationic amino acid transporter 1, CAT1/SLC7A1) (Homo sapiens, UniProt P30825) | % | -0.4
CC(=O)Nc1nnc(S(N)(=O)=O)s1 [Acetazolamide] | CAT1 (cationic amino acid transporter 1, CAT1/SLC7A1) (Homo sapiens, UniProt P30825) | % | -10.9

Query for CAT1 (cationic amino acid transporter 1, CAT1/SLC7A1) (Homo sapiens, UniProt P30825): what inhibition at 20 µM does the record show for COc1ccnc(C[S+]([O-])c2nc3cc(OC(F)F)ccc3[nH]2)c1OC (stereo not shown) ? 15.2

* * *

target: CAT1 (cationic amino acid transporter 1, CAT1/SLC7A1) (Homo sapiens); construct: full-length human transporter stably transfected in HEK cells (HEK-CAT1); net uptake against HEK-VC vector control cells; assay: cell-based; parameters: species or system HEK-CAT1 (HEK293 stably transfected); Inhibition of net CAT1-mediated [3H]-ADMA (1 uM) uptake, 2.5 min, scintillation counting, vector control subtracted; conditions: HEK293; ADMA 1 uM as substrate; read-out: % Inhibition of ADMA uptake at 20 µM
Quick reference for inhibition at 20 µM among some compounds
I only need the number, in %, no unit after it.

compound | inhibition at 20 µM (%)
C[C@H]1O[C@@H](O[C@H]2[C@@H](O)C[C@H](O[C@H]3[C@@H](O)C[C@H](O[C@H]4CC[C@@]5(C)[C@H](CC[C@@H]6[C@@H]5CC[C@]5(C)[C@@H](C7=CC(=O)OC7)CC[C@]65O)C4)O[C@@H]3C)O[C@@H]2C)C[C@H](O)[C@@H]1O | 4.3
CCOC(=O)[C@H](CCc1ccccc1)N[C@@H](C)C(=O)N1CCC[C@H]1C(=O)O | 27.2
c1ccc([C@H]2CN3CCSC3=N2)cc1 | 18.9

Given the entry CCOc1nc2cccc(C(=O)O)c2n1Cc1ccc(-c2ccccc2-c2nnn[nH]2)cc1 , report its measured inhibition at 20 µM. -11.1

Given the entry C#C[C@]1(O)CC[C@H]2[C@@H]3CCC4=CC(=O)CC[C@@H]4[C@H]3CC[C@@]21C , report its measured inhibition at 20 µM. -3.8

Given the entry CCN(CC)CCNC(=O)c1cc(Cl)c(N)cc1OC [Metoclopramide] , report its measured inhibition at 20 µM. -3.2

Given the entry Oc1ncnc2[nH]ncc12 , report its measured inhibition at 20 µM. 16.9

* * *

target: CAT1 (cationic amino acid transporter 1, CAT1/SLC7A1) (Homo sapiens); construct: full-length human transporter stably transfected in HEK cells (HEK-CAT1); net uptake against HEK-VC vector control cells; assay: cell-based; design: species or system HEK-CAT1 (HEK293 stably transfected); Inhibition of net CAT1-mediated [3H]-L-homoarginine (1 uM) uptake, 2.5 min, scintillation counting, vector control subtracted; conditions: HEK293; L-homoarginine 1 uM as substrate; read-out: % Inhibition of L-homoarginine uptake at 20 µM
observation type: inhibition at 20 µM (%)
I only need the number, in %, no unit after it.

Would you please look over these solved cases?
compound | tested on | inhibition at 20 µM, %
CC(C)OC(=O)C(C)(C)Oc1ccc(C(=O)c2ccc(Cl)cc2)cc1 [Fenofibrate] | CAT1 (cationic amino acid transporter 1, CAT1/SLC7A1) (Homo sapiens) | 10.1
CC(=O)N[C@@H](CS)C(=O)O [Acetylcysteine] | CAT1 (cationic amino acid transporter 1, CAT1/SLC7A1) (Homo sapiens) | -9

Given the entry C[C@@H]1CCC[C@H](C)N1NC(=O)c1ccc(Cl)c(S(N)(=O)=O)c1 [Clopamide] , report its measured inhibition at 20 µM. -14.3

Given the entry CN/C(=N\CCSCc1nc[nH]c1C)NC#N [Cimetidine] , report its measured inhibition at 20 µM. 21.9

Given the entry CNCCC(Oc1ccc(C(F)(F)F)cc1)c1ccccc1 (stereo not drawn) [Fluoxetine] , report its measured inhibition at 20 µM. -4.4

Given the entry CN(C)CCCC1(c2ccc(F)cc2)OCc2cc(C#N)ccc21 (stereo not drawn) [Citalopram] , report its measured inhibition at 20 µM. 8.8

Given the entry Nc1ccn([C@@H]2CS[C@H](CO)O2)c(=O)n1 [Lamivudine] , report its measured inhibition at 20 µM. -3.4

Given the entry NS(=O)(=O)c1cc2c(cc1Cl)NCNS2(=O)=O [Hydrochlorothiazide] , report its measured inhibition at 20 µM. 8.5

Given the entry COC(=O)[C@H]1[C@H]2C[C@@H]3c4[nH]c5cc(OC)ccc5c4CCN3C[C@H]2C[C@@H](OC(=O)c2cc(OC)c(OC)c(OC)c2)[C@@H]1OC [Reserpine] , report its measured inhibition at 20 µM. 5

* * *

molecular target: CAT1 (cationic amino acid transporter 1, CAT1/SLC7A1) (Homo sapiens, UniProt P30825); construct: full-length human transporter stably transfected in HEK cells (HEK-CAT1); net uptake against HEK-VC vector control cells; test: cell-based; set-up: species or system HEK-CAT1 (HEK293 stably transfected); Inhibition of net CAT1-mediated [3H]-L-homoarginine (1 uM) uptake, 2.5 min, scintillation counting, vector control subtracted; conditions: HEK293; L-homoarginine 1 uM as substrate; read-out: % Inhibition of L-homoarginine uptake at 200 µM
Quick reference for inhibition at 200 µM among some molecules
I only need the number, in %, no unit after it.

molecule | observation type | data value
CC(C)NCC(O)COc1ccc(COCCOC(C)C)cc1 (stereo not drawn) | inhibition at 200 µM | -14.9
COc1ccc([C@@H]2Sc3ccccc3N(CCN(C)C)C(=O)[C@@H]2OC(C)=O)cc1 | inhibition at 200 µM | 29
CC(C)NCC(O)COc1cccc2ccccc12 (stereo not drawn) | inhibition at 200 µM | -3.5
CC1(C)S[C@@H]2[C@H](NC(=O)[C@H](N)c3ccccc3)C(=O)N2[C@H]1C(=O)O | inhibition at 200 µM | -6.6
CC(C)OC(=O)C(C)(C)Oc1ccc(C(=O)c2ccc(Cl)cc2)cc1 [Fenofibrate] | inhibition at 200 µM | 8.9
COC(=O)[C@H](c1ccccc1Cl)N1CCc2sccc2C1 | inhibition at 200 µM | 0.8
CCCc1nc(C(C)(C)O)c(C(=O)O)n1Cc1ccc(-c2ccccc2-c2nnn[nH]2)cc1 | inhibition at 200 µM | -13.7
C[C@]12CCC(=O)C=C1CC[C@@H]1[C@@H]2[C@@H](O)C[C@@]2(C)[C@H]1CC[C@]2(O)C(=O)CO [Hydrocortisone] | inhibition at 200 µM | -9.5

Given the entry Nc1nc(N)c2nc(-c3ccccc3)c(N)nc2n1 , report its measured inhibition at 200 µM. 14.1

Given the entry Cc1nccn1CC1CCc2c(c3ccccc3n2C)C1=O (stereo not drawn) , report its measured inhibition at 200 µM. -8.3

Given the entry NS(=O)(=O)c1cc2c(cc1Cl)NCNS2(=O)=O [Hydrochlorothiazide] , report its measured inhibition at 200 µM. 7.9

Given the entry c1ccc([C@H]2CN3CCSC3=N2)cc1 , report its measured inhibition at 200 µM. -15.9

Given the entry CCN(CC)CCCC(C)Nc1ccnc2cc(Cl)ccc12 (stereo not drawn) , report its measured inhibition at 200 µM. -54.8

Given the entry CCN(CC)CCNC(=O)c1cc(Cl)c(N)cc1OC [Metoclopramide] , report its measured inhibition at 200 µM. 1.4

Given the entry CC(=O)Nc1nnc(S(N)(=O)=O)s1 [Acetazolamide] , report its measured inhibition at 200 µM. 8.8

Given the entry COc1ccnc(C[S+]([O-])c2nc3cc(OC(F)F)ccc3[nH]2)c1OC (stereo not drawn) , report its measured inhibition at 200 µM. 12.5

Given the entry COc1ccc(Cl)cc1C(=O)NCCc1ccc(S(=O)(=O)NC(=O)NC2CCCCC2)cc1 [Glibenclamide] , report its measured inhibition at 200 µM. 10.1

Given the entry NC(=O)N1c2ccccc2C=Cc2ccccc21 [Carbamazepine] , report its measured inhibition at 200 µM. 12.7

Given the entry CCOC(=O)[C@H](CCc1ccccc1)N[C@@H](C)C(=O)N1CCC[C@H]1C(=O)O , report its measured inhibition at 200 µM. -9.5

Given the entry COc1ccc2c(c1)[C@]13CCCC[C@@H]1[C@H](C2)N(C)CC3 , report its measured inhibition at 200 µM. 3.1

Given the entry CCCN(CCC)S(=O)(=O)c1ccc(C(=O)O)cc1 , report its measured inhibition at 200 µM. -1.1

Given the entry C[C@H]1O[C@@H](O[C@H]2[C@@H](O)C[C@H](O[C@H]3[C@@H](O)C[C@H](O[C@H]4CC[C@@]5(C)[C@H](CC[C@@H]6[C@@H]5C[C@@H](O)[C@]5(C)[C@@H](C7=CC(=O)OC7)CC[C@]65O)C4)O[C@@H]3C)O[C@@H]2C)C[C@H](O)[C@@H]1O , report its measured inhibition at 200 µM. -12.7

Given the entry COc1ccc(OC)c(C(O)C(C)N)c1 (stereo not drawn) , report its measured inhibition at 200 µM. -23.9

Given the entry Oc1ncnc2[nH]ncc12 , report its measured inhibition at 200 µM. -2.6
